Let's look at some molecules and their measured pH 1 hr.
# PROTOCOL DESCRIPTION: pH value of saturated SCY-078 salt solutions in water
# Assay type: physicochemical
# CONDITION DESCRIPTION: saturated salt solution in H2O, room temperature, equilibrated 1 hour
OBSERVED PROPERTY: pH 1 hr

MOLECULE: CC(C)[C@@H](C)[C@@]1(C)CC[C@]2(C)[C@H]3CC[C@@H]4[C@@]5(COC[C@]4(C)[C@@H](OC[C@](C)(N)C(C)(C)C)[C@H](n4ncnc4-c4ccncc4)C5)C3=CC[C@@]2(C)[C@@H]1C(=O)O.O=C(O)CNC(=O)c1ccccc1.O=C(O)CNC(=O)c1ccccc1 [SCY-078 hippurate Type B]
READOUT VALUE: 4.6
--
MOLECULE: CC(C)[C@@H](C)[C@@]1(C)CC[C@]2(C)[C@H]3CC[C@@H]4[C@@]5(COC[C@]4(C)[C@@H](OC[C@](C)(N)C(C)(C)C)[C@H](n4ncnc4-c4ccncc4)C5)C3=CC[C@@]2(C)[C@@H]1C(=O)O.O=P(O)(O)O [SCY-078 phosphate Type A]
READOUT VALUE: 3.4
--
MOLECULE: CC(C)[C@@H](C)[C@@]1(C)CC[C@]2(C)[C@H]3CC[C@@H]4[C@@]5(COC[C@]4(C)[C@@H](OC[C@](C)(N)C(C)(C)C)[C@H](n4ncnc4-c4ccncc4)C5)C3=CC[C@@]2(C)[C@@H]1C(=O)O.O=C(O)CC(O)(CC(=O)O)C(=O)O [SCY-078 citrate Type A]
READOUT VALUE: 3.5
--
MOLECULE: CC(C)[C@@H](C)[C@@]1(C)CC[C@]2(C)[C@H]3CC[C@@H]4[C@@]5(COC[C@]4(C)[C@@H](OC[C@](C)(N)C(C)(C)C)[C@H](n4ncnc4-c4ccncc4)C5)C3=CC[C@@]2(C)[C@@H]1C(=O)O.O=C(O)/C=C/C(=O)O [SCY-078 fumarate Type A]
READOUT VALUE: 4.4
